- protocol.summary: Metabolic stability in human liver microsomes assessed as parent compound remaining at 200 uM preincubated for 5 mins followed by NADPH and measured at 60 mins by LC-MS/MS analysis
- conditions.used: liver microsomes
parameter: remaining at 1 h, 200 µM (%)
Numbers only, in %.

* O=C(NO)c1ccc(/C=C/c2nc3ccccc3c(=O)[nH]2)cc1 | 58.1
* COc1ccc2c(c1)[C@]13CCCC[C@@H]1[C@H](C2)N(C)CC3 [DEXTROMETHORPHAN] | 30.4

From here, focus on the item given below.
Entry O=C(NO)c1ccc(Cn2c(=O)[nH]c(=O)c3cccc(Cl)c32)cc1 — recorded remaining at 1 h, 200 µM = 100
